Target: T1, TNFR1 (Homo sapiens, UniProt P19438)
T1 chain: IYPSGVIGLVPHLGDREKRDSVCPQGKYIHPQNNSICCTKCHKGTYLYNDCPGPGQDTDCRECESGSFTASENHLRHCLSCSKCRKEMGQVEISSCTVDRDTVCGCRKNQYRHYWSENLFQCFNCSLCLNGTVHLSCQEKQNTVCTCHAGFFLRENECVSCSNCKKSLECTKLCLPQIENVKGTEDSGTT
Assay: yeast display SC50
Property: apparent Kd (screen); scope: individual binders
Write the value in nM as a bare number.

Solved entries (count: 5):
{"Binder": "K17D (designed binder) SMEEEVEKAAKEYEKKDKEAIEKHLEKLKAKDKEAAERFLKELEEAAKEYAKDEAKTMSEEEAKRRAKKYKEKVLLSELSEEEQKEIKEAEEKLVRTILKYVEEAAK", "apparent Kd (screen), nM": 5.31}
{"Binder": "A105S (designed binder) SMEEEVEKAAKEYEKKKKEAIEKHLEKLKAKDKEAAERFLKELEEAAKEYAKDEAKTMSEEEAKRRAKKYKEKVLLSELSEEEQKEIKEAEEKLVRTILKYVEESAK", "apparent Kd (screen), nM": 0.956}
{"Binder": "E92F (designed binder) SMEEEVEKAAKEYEKKKKEAIEKHLEKLKAKDKEAAERFLKELEEAAKEYAKDEAKTMSEEEAKRRAKKYKEKVLLSELSEEEQKEIKEAEFKLVRTILKYVEEAAK", "apparent Kd (screen), nM": 13.8}
{"Binder": "K52P (designed binder) SMEEEVEKAAKEYEKKKKEAIEKHLEKLKAKDKEAAERFLKELEEAAKEYAPDEAKTMSEEEAKRRAKKYKEKVLLSELSEEEQKEIKEAEEKLVRTILKYVEEAAK", "apparent Kd (screen), nM": 4.39}
{"Binder": "E49Q (designed binder) SMEEEVEKAAKEYEKKKKEAIEKHLEKLKAKDKEAAERFLKELEEAAKQYAKDEAKTMSEEEAKRRAKKYKEKVLLSELSEEEQKEIKEAEEKLVRTILKYVEEAAK", "apparent Kd (screen), nM": 3}

Input: apparent Kd (screen) lookup needed for K52S (designed binder) SMEEEVEKAAKEYEKKKKEAIEKHLEKLKAKDKEAAERFLKELEEAAKEYASDEAKTMSEEEAKRRAKKYKEKVLLSELSEEEQKEIKEAEEKLVRTILKYVEEAAK , thanks.
Output: 0.446

Input: apparent Kd (screen) lookup needed for K29P (designed binder) SMEEEVEKAAKEYEKKKKEAIEKHLEKLPAKDKEAAERFLKELEEAAKEYAKDEAKTMSEEEAKRRAKKYKEKVLLSELSEEEQKEIKEAEEKLVRTILKYVEEAAK , thanks.
Output: 7.78

Input: apparent Kd (screen) lookup needed for Y101C (designed binder) SMEEEVEKAAKEYEKKKKEAIEKHLEKLKAKDKEAAERFLKELEEAAKEYAKDEAKTMSEEEAKRRAKKYKEKVLLSELSEEEQKEIKEAEEKLVRTILKCVEEAAK , thanks.
Output: 0.446

Input: apparent Kd (screen) lookup needed for K11V (designed binder) SMEEEVEKAAVEYEKKKKEAIEKHLEKLKAKDKEAAERFLKELEEAAKEYAKDEAKTMSEEEAKRRAKKYKEKVLLSELSEEEQKEIKEAEEKLVRTILKYVEEAAK , thanks.
Output: 0.593
